Tested on: ESS-1 (Other Solid Carcinomas)
Test: combination Emax (second highest fraction inhibited in the dose matrix, 72 h); higher = more inhibition; extreme values may be limits of the assay
Each entry below carries its reported combination Emax.

# Compound, Test System, combination Emax
records = [
    ("COc1cccc(OCCCN)c1-c1cc(Nc2cnc(C#N)cn2)n[nH]1 [Prexasertib] + CN(C)CCCOc1ccc(-c2ccc3ncc4c(c3c2)n(C2CCOCC2)c(=O)n4C)cn1 [AZD0156] (first compound max 1 µM, 7x7, partner max 1 µM)", "ESS-1 (Other Solid Carcinomas)", 1),
    ("Cc1c2c(nn1C)CSCc1cc(n(C)n1)CSc1cc(c3ccccc3c1)OCCCc1c(C(=O)O)n(C)c3c-2c(Cl)ccc13 [AZD5991] + Cc1cc2ncnn2cc1Nc1ncc2c(n1)n(C1CCOCC1)c(=O)n2C [AZD7648] (first compound max 1 µM, 7x7, partner max 10 µM)", "ESS-1 (Other Solid Carcinomas)", 0.407),
    ("CCN(CCO)CCCOc1ccc2c(Nc3cc(CC(=O)Nc4cccc(F)c4)[nH]n3)ncnc2c1 [AZD2811] + C=CCn1c(=O)c2cnc(Nc3ccc(N4CCN(C)CC4)cc3)nc2n1-c1cccc(C(C)(C)O)n1 [AZD1775] (first compound max 1 µM, partner max 1 µM)", "ESS-1 (Other Solid Carcinomas)", 1),
    ("CN(CCO)CC[C@H](CSc1ccccc1)Nc1ccc(S(=O)(=O)NC(=O)c2ccc(N3CCC([C@@H](O)c4ccccc4-c4ccc(Cl)cc4)CC3)cc2)cc1S(=O)(=O)C(F)(F)F [AZD4320] + C[C@@H]1COCCN1C2=NC(=NC(=C2)C3(CC3)[S@](=N)(=O)C)C4=C5C=CNC5=NC=C4 [AZD6738] (first compound max 1 µM, 7x7, partner max 10 µM)", "ESS-1 (Other Solid Carcinomas)", 0.992),
]
